test system: PC-3 prostate; assay: NCI-60 one-dose screen, 48 h (100 = growth as untreated, 0 = no growth, -100 = all killed); settings: 10 µM unless noted
Compounds without any hit were thinned out: in the full panel of roughly 83,000, 20% have a hit.
Listing of recorded growth by entry.
All answers are understood in %, so give the number only.

As a guide, the following entries are already answered.
> print(dat)
                                   compound  assay.readout  readout.value
1  CSc1nc2c(c(=O)n1C)C(c1ccccc1)C1=C(N2)/C(=C/c2ccccc2)CCC1 (stereo not given)         growth           48.1
2  CCOC(=O)C(C(C)=O)c1nc2sc3cc(Cl)ccc3n2c(=N)c1C#N (stereo not given)         growth           72.5
3  Fc1ccc(-c2nnc(/C=C/c3cn(-c4ccccc4)nc3-c3ccccc3)o2)cc1         growth           95.2

Problem: State measured growth of the compound "COc1ccc(-c2cnnn2-c2cc(OC)c3c(c2)OCO3)cc1" with PC-3 prostate.
Solution: 4.25

Problem: Write down measured growth (PC-3 prostate) for this compound. "C[n+]1ccc(C#N)c2ccccc21"
Solution: 107

Problem: Lab note: record growth of "COc1c(C)c2c(c(O)c1C/C=C(\C)CCC(=O)OCCN1CCOCC1)C(=O)OC2" tested on PC-3 prostate.
Solution: 23.2

Problem: Check PC-3 prostate data and give growth for "Nc1nc(Cl)c2[nH]cnc2n1" .
Solution: 122

Problem: Please tell me the measured growth for CC1SC(c2c(Cl)cccc2Cl)N(NC(=O)c2[nH]c3ccc(F)cc3c2-c2ccccc2)C1=O (stereo not given) ; system: PC-3 prostate.
Solution: 32.2

Problem: Report value: growth, system: PC-3 prostate, compound: "COc1ccc(/C=N/NC(=O)c2ccc(S(C)(=O)=O)cc2)cc1OC"
Solution: 88.5

Problem: // output growth; input "COc1ccc(Nc2nccc(N3CCN(c4c5ccc(Cl)cc5nc5ccc(OC)cc45)CC3)n2)cc1" ; system PC-3 prostate
Solution: 57.9

* * *

Property: growth; scope: individual compounds
tested on: M14 melanoma; experiment: NCI-60 one-dose screen, 48 h (100 = growth as untreated, 0 = no growth, -100 = all killed); conditions: 10 µM unless noted
This is part of a sample that, as a whole, favours compounds with a hit. Of some 83,000 tested, about 20% had one in any assay. Activity calls are given as the source filed them. The calls were made as follows: active = growth percent below 10; inactive = the rest.

Below, each entry is followed by its recorded growth result.
> print(dat)
                                   compound   measured.on  assay.readout     readout.value
1  CC(CCC(=O)O)(NC(=O)c1ccc([N+](=O)[O-])cc1)C(=O)O (stereo not given)  M14 melanoma         growth   102% (inactive)
2  Cc1c(C(N)=O)sc2nc(SCC(=O)Nc3ccc(Cl)cc3)n(-c3ccccc3)c(=O)c12  M14 melanoma         growth   104% (inactive)
3  COC(=O)CCC1=C(CC(=O)OC)C(C)=N/C1=C\c1[nH]c(-c2ccc[nH]2)cc1OC  M14 melanoma         growth  17.2% (inactive)
4  CC(=O)c1cc(C(=O)c2ccc3c(c2)Sc2ccccc2N3)c2c(C)cc(C)cn12  M14 melanoma         growth    9.62% (active)

We now examine a further compound.
Problem: Note down growth recorded for COc1ccc(-c2nn(-c3cccc(Cl)c3)cc2C2CC(c3ccccc3)=NN2C(C)=O)cc1 (stereo not given)
Solution: 89.2% (inactive)
